The measurements presented in this section are drawn from patent US20160340421A1.

- Measurement Target: T1, hGDF11 homodimer (human, UniProt O95390 299-407)
- T1 sequence (looked up): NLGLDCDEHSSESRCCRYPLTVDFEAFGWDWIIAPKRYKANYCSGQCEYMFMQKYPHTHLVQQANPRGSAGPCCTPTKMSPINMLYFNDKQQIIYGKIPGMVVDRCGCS
- Assay Comment: SPR, antibody captured, 25 nM antigen
- Method: Equilibrium dissociation constants (KD values) for antigen binding to selected antibodies were determined by surface kinetics using a real-time biosensor surface plasmon resonance assay (BIACORE™ 2000). […] Human GDF8 homodimer, hGDF11 homodimer, or hGDF5 homodimer at 25 nM was injected over the captured antibody surfaces, and antigen-antibody binding and dissociation were monitored in real time at room temperature. […]
Parameter Measured: T1/2

*Q* Request the reported T1/2 associated with 21-E5 (antibody, V domains shown) VH: QVQLVESGPGLVKPSETLSLTCTVYGGSISSGNYYWGWIRQPPGKGLEWIGTIYYSGSAYYNPSLKSRVTMSVDTSKNQFSLKLSSVTAADTAVYYCVRDYYDSSGHYYNWFDPWGQGTTVTVSS VL: AIQMTQSPSSLSASVGDRVTITCRASQDIRHDLGWYQQKPGKAPKRLIYAASSLQSGVPSRFSGSGSGTEFTLTISSLQPEDFATYYCLQHNTYPWTFGQGTKVEIKR
*A* 116 min

*Q* Request the reported T1/2 associated with 21-E9 (antibody, V domains shown) VH: EVQLVQLGPGLVKPSETLSLTCTVSGGSISNSNYYWGWIRQPPGKGLEWIGTTYYSGTTYYNPSLKSRVTISVDTSKNQFSLKLSSVTAADTAVYYCARDYYDSSGYYYNWFDPWGQGTTVTVSS VL: AIQMTQSPSSLSASVGDRVTITCRASQDIRNDLGWYQQKPGKAPKRLIYAASSLQSGVPSRFSGSGSGTEFSLTLSSLQPEDFATYFCLQHHIYPWTFGQGTKVEIKR
*A* 221 min

*Q* Request the reported T1/2 associated with 4E3-7 (antibody, V domains shown) VH: EVQLLESGGGLVQPGGSLRLSCVASRFTFSSNAMSWVRQAPGTGLEWVSAITGSGSRTYYADSVKGRFTISRDNSKNTVYLQMNSLRGEDTAVYYCAKDQGGTWNYGDFDYWGQGTLVTVSS VL: EIVMTQSPATLSVSPGERATLSCRASQSVSSNLAWYQQKPGQAPRLLIYGASTRATGLPARFSGSGSGTDFTLTISSLQSEDFAVYYCQQYNNWPLTFGGGTKVEIK
*A* 29 min
